Molecular target: mushroom tyrosinase (mTYR) (Agaricus bisporus)
Construct: purchased Sigma-Aldrich (Milan, Italy)
Assay: Inhibition of mushroom tyrosinase diphenolase reaction (substrate L-dopa, dopachrome at 475 nm)
Format: biochemical
Details: KI Competitive, diphenolase, inhibitor 11.2 µM
pKi: −log10 of the molar value.

Smiles Structure: O=C(/C=C/c1ccc(O)c(O)c1)c1ccc(O)cc1O
pKi: 5.36

====

Target: mushroom tyrosinase (mTYR) (Agaricus bisporus)
Construct: purchased Sigma-Aldrich (Milan, Italy)
Test: Inhibition of mushroom tyrosinase diphenolase reaction (substrate L-dopa, dopachrome at 475 nm)
Assay type: biochemical
Settings: IC50 Diphenolase, 30 °C, pH 6.8, L-dopa 0.50 mM
pIC50: −log10 of the molar value.
pIC50: recorded values

Smiles Structure: O=C(/C=C/c1ccc(O)c(O)c1)c1ccc(O)cc1O
Test System: mushroom tyrosinase (mTYR) (Agaricus bisporus)
pIC50: 5.03

Smiles Structure: COc1cc(/C=C/C(=O)c2ccc(O)cc2O)ccc1O
Test System: mushroom tyrosinase (mTYR) (Agaricus bisporus)
pIC50: 5.12

====

Target: mushroom tyrosinase (mTYR) (Agaricus bisporus, UniProt C7FF04)
Construct: purchased Sigma-Aldrich (Milan, Italy)
Sequence (C7FF04 1-392): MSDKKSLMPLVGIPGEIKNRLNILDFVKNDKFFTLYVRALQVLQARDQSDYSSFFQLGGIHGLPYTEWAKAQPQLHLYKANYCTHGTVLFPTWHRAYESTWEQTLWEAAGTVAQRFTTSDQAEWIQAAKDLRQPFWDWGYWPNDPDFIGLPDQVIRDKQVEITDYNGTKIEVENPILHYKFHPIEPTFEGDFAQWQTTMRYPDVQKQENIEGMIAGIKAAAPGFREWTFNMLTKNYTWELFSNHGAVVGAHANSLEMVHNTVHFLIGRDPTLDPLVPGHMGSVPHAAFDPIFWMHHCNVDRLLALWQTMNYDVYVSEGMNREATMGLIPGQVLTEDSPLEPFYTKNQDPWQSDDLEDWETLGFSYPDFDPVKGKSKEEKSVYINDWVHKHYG
Assay: Inhibition of mushroom tyrosinase monophenolase reaction (substrate L-tyrosine, dopachrome at 475 nm)
Type: biochemical
Settings: KI Competitive, monophenolase, inhibitor 2.8 µM

Smiles Structure: COc1cc(/C=C/C(=O)c2ccc(O)cc2O)ccc1O
Test System: mushroom tyrosinase (mTYR) (Agaricus bisporus, UniProt C7FF04)
Ki [nM]: 2240

====

Biological target: mushroom tyrosinase (mTYR) (Agaricus bisporus, UniProt C7FF04)
Construct: purchased Sigma-Aldrich (Milan, Italy)
Test: Inhibition of mushroom tyrosinase monophenolase reaction (substrate L-tyrosine, dopachrome at 475 nm)
Assay type: biochemical
Settings: KI Competitive, monophenolase, inhibitor 1.4 µM

Compound: COc1cc(/C=C/C(=O)c2ccc(O)cc2O)ccc1O [Homobutein]
Ki: 2190 nM
